B1: SLC35F2 (parent)
chain: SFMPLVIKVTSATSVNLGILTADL

variants of: B1; assay: protein stability index of a GFP-peptide fusion (GPS, HEK-293T) (PSI 1-6); higher = more stable; settings: c terminus: a fixed tail appended;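 further: lentivirally expressed fusions sorted by FACS into six bins by GFP to DsRed ratio, PSI derived from sequencing read proportions per bin multiplied by bin number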
Reported protein stability index values for the following variants.
Write the value as a bare number.

Solved cases (5 shown):
[[record]]
seq = "SFMPLVIKVTSATSVNLGILTPDL [A22P]"
measurednumber = 3.07

[[record]]
seq = "SFMPLVIKVTSADSVNLGILTADL [T13D]"
measurednumber = 3.02

[[record]]
seq = "SFMPLVIKVTSATSVNLGILTAHL [D23H]"
measurednumber = 3.1

[[record]]
seq = "CFMPLVIKVTSATSVNLGILTADL [S1C]"
measurednumber = 3.77

[[record]]
seq = "SDMPLVIKVTSATSVNLGILTADL [F2D]"
measurednumber = 2.12


Query (variant): SFMPLVIKVTSATSVNLCILTADL [G18C] ; field requested: protein stability index 3.82

I am curious: what protein stability index value has been reported for SFMPLVISVTSATSVNLGILTADL [K8S] ? 3.16

I have this variant here, SFMPLVIKVNSATSVNLGILTADL [T10N] , and I need its recorded protein stability index. 2.43

Any idea what its protein stability index is? The variant is SFMPIVIKVTSATSVNLGILTADL [L5I] 2.1

So what's the measured protein stability index for this one? EFMPLVIKVTSATSVNLGILTADL [S1E] 4.28
